# z-score per entry
Experimental Protocol: MELAS cybrid and Rieske KO viability enhancers – cell-based, MELAS cybrids, Rieske KO mouse fibroblasts, CellTiter-Glo, primary screen (AID 1508586);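 further: z relative to plate mean and SD of compound and empty wells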
Measurement Conditions: Rieske KO mouse fibroblast survival, low glucose, CellTiter-Glo 72 h
I only need the number, thanks.

Here are 2 compounds together with their reported answers.
>>> print(df.to_string())
                                   compound  measurement
0   Cc1cnc(CN(C)C(=O)c2n[nH]c3ccccc23)[nH]1       -0.304
1  COc1ccc(CN2CCN(c3nccc(-c4cn(C)nc4C)n3)CC2=O)cc1         2.53

Ask | So what's the measured z-score for this one? COC(=O)C1C(OC)C(OC(=O)c2cc(OC)c(OC)c(OC)c2)C[C@@H]2CN3CCc4c([nH]c5cc(OC)ccc45)[C@H]3C[C@H]12 (stereo not given in full)
Reply | 0.995

Ask | Param item: COc1ccc(CN2CCN(c3ncnc4sccc34)CC2=O)cc1
Reply | -0.343

Ask | Param item: COc1cc(C=CC(=O)N2CCN(CC(=O)N3CCCC3)CC2)cc(OC)c1OC
Reply | -0.0197

---

Experimental Protocol: viability loss with induced miR-34 in A549 – imaging, A549 dox-inducible miR-34, nuclei and caspase counts, primary screen (AID 1347080)
Measurement Conditions: A549 miR-34 inducible, Hoechst nuclei count, 48 h; measured here: total cells with miR-34 induction; stronger effect = lower value
# cell count per entry
I only need the number, thanks.

Here are 5 compounds together with their reported answers.
Compound	cell count
O=C(NOCC1CC1)c1cc(Br)c(F)c(F)c1Nc1ccc(I)cc1Cl	1380
Cc1cc(Nc2ccc(NC(=O)c3ccc(Nc4ccnc5ccccc45)cc3)cc2)nc(N)n1	6080
CC(C)Oc1ccc(C(=O)NC(CNC(=O)CN(C)C)Cc2ccc(-c3cn4cccc(C(C)O)c4n3)cc2)cc1Cl (configuration not stated)	1600
CN(C)CCC(CSc1ccccc1)Nc1ccc(S(=O)(=O)NC(=O)c2ccc(N3CCN(Cc4ccccc4-c4ccc(Cl)cc4)CC3)cc2)cc1[N+](=O)[O-] (configuration not stated)	5830
CCCCC/C=C\CC1OC1CCCCCCCC(=O)O (configuration not stated)	5290

Ask | So what's the measured cell count for this one? OC(CCN1CCCCC1)(c1ccccc1)C1C[C@@H]2C=C[C@H]1C2 (some centres not stated)
Reply | 8210

Ask | Param item: COc1cccc(-n2cc(-c3ccnc(NCCc4cnc[nH]4)n3)cn2)c1
Reply | 7850

Ask | Param item: CC(=O)N[C@H](C(=O)O)C(C)(C)SN=O
Reply | 11100

Ask | Param item: C[C@@H]1COc2c(N3CCN(C)CC3)c(F)cc3c(=O)c(C(=O)O)cn1c23
Reply | 8330

Ask | Param item: CC(C)CN(C[C@H](O)[C@@H](Cc1ccccc1)NC(=O)O[C@@H]1CO[C@H]2OCC[C@H]21)S(=O)(=O)c1ccc(N)cc1
Reply | 7440

---

Experimental Protocol: drug combination growth inhibition, ovarian cancer – cell-based, oncology-focused library, rucaparib conditional, profiling panel (AID 1508598)
Measurement Conditions: patient-derived ovarian cancer cells, CellTiter-Glo viability, 144 h; at 0.000305 µM; OCI-C5x cells; with rucaparib 10 µM; stronger effect = lower value; 100% = cells with rucaparib alone
Calls of active or inactive are those of the source.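 How the source made its calls: active means normalized viability below 100% at a tested concentration; inactive means the rest.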
# viability per entry

Here are 6 molecules together with their reported answers.
Molecule	viability
CCCc1ccc(OCC(=O)N(Cc2nc(-c3cccnc3)no2)C(C)C)cc1	116% (inactive)
Cc1ccc(NC(=O)c2ccc(CN3CCN(C)CC3)cc2)cc1Nc1nc(-c2cccnc2)cs1	103% (inactive)
CO[C@H]1/C=C\C=C(\C)C(=O)NC2=CC(=O)C(NCCN(C)C)=C(C[C@@H](C)C[C@H](OC)[C@H](O)[C@@H](C)/C=C(\C)[C@@H]1OC(N)=O)C2=O	108% (inactive)
CO[C@H]1C[C@@H]2CC[C@@H](C)[C@@](O)(O2)C(=O)C(=O)N2CCCC[C@H]2C(=O)O[C@H]([C@@H](C)C[C@@H]2CC[C@@H](OCCO)[C@H](OC)C2)CC(=O)[C@H](C)/C=C(\C)[C@H](O)[C@@H](OC)C(=O)[C@H](C)C[C@H](C)/C=C/C=C/C=C/1C	103% (inactive)
COc1ccc(C2=N[C@H](c3ccc(Cl)cc3)[C@@H](c3ccc(Cl)cc3)N2C(=O)N2CCNC(=O)C2)c(OC(C)C)c1	112% (inactive)
C[C@]12C=CC(=O)C=C1CC[C@@H]1[C@H]2C(=O)C[C@@]2(C)[C@H]1CC[C@@]2(O)C(=O)CO	112% (inactive)

Could you now look at the following molecule, please?
Ask | So what's the measured viability for this one? Cc1cc([N+](=O)[O-])ccc1NS(=O)(=O)c1cc(Cl)ccc1Cl
Reply | 116% (inactive)

---

Experimental Protocol: viability loss with induced miR-34 in A549 – imaging, A549 dox-inducible miR-34, nuclei and caspase counts, primary screen (AID 1347080)
Measurement Conditions: A549 miR-34 inducible, Hoechst nuclei count, 48 h; measured here: relative caspase fold change +Dox/-Dox
Measured Metric: fold change
I only need the number, thanks.

>>> df
                                   molecule  measurement
0     Cc1ccc(NS(=O)(=O)c2ccccc2)c(C(=O)O)c1        0.521
1  COC(=O)[C@]12CCC(C)(C)C[C@@H]1[C@@H]1C(=O)C=C3[C@]4(C)C=C(C#N)C(=O)C(C)(C)[C@@H]4CC[C@@]3(C)[C@]1(C)CC2        0.469
2  C[N+]1(C)[C@@H]2CC(OC(=O)C(O)(c3cccs3)c3cccs3)C[C@H]1C1OC12 (stereo partly drawn)        0.479
3                      Fc1ccc(CC2CCNCC2)cc1         0.77
4  c1ccc2c(c1)OCC(CNc1ncnc3nc[nH]c13)O2 (stereo not drawn)        0.972
5  CCCCCC1OC1C/C=C\C/C=C\C/C=C\CCCC(=O)O (stereo not drawn)         1.73
6  CCOC1O[C@H]([C@@H](COCc2ccccc2)OCc2ccccc2)[C@H](OCc2ccccc2)[C@H]1O (stereo partly drawn)        0.887
7                          CCN1C(=O)C=CC1=O         1.06
8  CC(C)(Oc1ccc(Cl)cc1)C(=O)OCCOC(=O)c1cccnc1        0.391
9        CCCCCCCCCCCCCCCCOC[C@H](CO)OC(C)=O          1.5

Ask | So what's the measured fold change for this one? NC(=O)Cc1c[nH]c2ccccc12
Reply | 0.482

Ask | Param item: NC1=NC(=O)C(=Cc2ccc(-c3ccc(C(=O)O)cc3)o2)S1
Reply | 0.479

Ask | Param item: O=c1ccc2ccccc2[nH]1
Reply | 0.441

Ask | Param item: Cc1ccc2nc(C3CCCN3c3ncc(C)c(-c4cnn(C)c4)n3)[nH]c2c1 (stereo not drawn)
Reply | 1.37

Ask | Param item: O=C(O)c1ccc(-c2ccccc2[N+](=O)[O-])o1
Reply | 0.452

Ask | Param item: CC(C)C(=O)N1CCC(CNC(=O)c2ccno2)CC1
Reply | 0.833

Ask | Param item: Nc1nc(Nc2ccccc2)nc2c1ncn2[C@@H]1O[C@H](CO)[C@H](O)C1O (stereo partly drawn)
Reply | 1.23

---

Experimental Protocol: MELAS cybrid and Rieske KO viability enhancers – cell-based, MELAS cybrids, Rieske KO mouse fibroblasts, CellTiter-Glo, primary screen (AID 1508586);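 further: z relative to plate mean and SD of compound and empty wells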
Measurement Conditions: Rieske KO mouse fibroblast survival, low glucose, CellTiter-Glo 72 h
# z-score per entry
I only need the number, thanks.

Here are 5 compounds together with their reported answers.
                                   compound  measurement
0  CCOc1ccc(C=C2NCCc3cc(OCC)c(OCC)cc32)cc1OCC      -0.0245
1             COc1cc(N=C(N)N=C(N)N)cc(OC)c1       -0.341
2  Cc1c(O)cccc1C(=O)NC(CSc1ccccc1)C(O)CN1C[C@H]2CCCC[C@H]2CC1C(=O)NC(C)(C)C (some centres undefined)      -0.0438
3  Cc1onc(-c2ccccc2Cl)c1C(=O)NC1C(=O)N2C(C(=O)O)C(C)(C)S[C@@H]12 (some centres undefined)        0.485
4  CN1CCN(Cc2cccc(-n3cccn3)c2)CC1CCO (centres undefined)       -0.308

Ask | So what's the measured z-score for this one? Nc1cc(F)ccc1NC(=O)C=Cc1cnn(CC=Cc2ccccc2)c1
Reply | -2.77

Ask | Param item: O=C(Nc1n[nH]c(Cc2ccccc2)n1)N1CCN(c2ncccn2)CC1
Reply | 4

Ask | Param item: C[C@]12C=CC(=O)N[C@@H]1CC[C@@H]1[C@H]2CC[C@]2(C)C(C(=O)Nc3cc(C(F)(F)F)ccc3C(F)(F)F)CC[C@@H]12 (some centres undefined)
Reply | 0.0125

Ask | Param item: Cc1cccc(C)c1OCC(=O)NC(Cc1ccccc1)C(O)CC(Cc1ccccc1)NC(=O)C(C(C)C)N1CCCNC1=O (centres undefined)
Reply | 0.0231
